B1: library; a variant is named by its letters at N, in order (parent)
chain: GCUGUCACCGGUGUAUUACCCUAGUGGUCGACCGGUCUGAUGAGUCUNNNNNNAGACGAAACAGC

Variants of: B1
Assay: normalized RNA/DNA level with ligand (relative to sTRSVctl = 100) (log10 (% of sTRSVctl)); ligand: hypoxanthine (xanthine aptamer); higher = less ribozyme self-cleavage, higher mRNA level
Conditions: ligand concentration (+) RNA-Seq: 5 mM, HEK293T, reporter: mCherry (pCS4076), ligand present: yes
Known normalized RNA/DNA level with ligand (log10) of a selection of variants
Hey, just send me the number, nothing else.

AGGGUU	1.97
GUCACG	1.9
UAGCUG	1.94

Query: Identify normalized RNA/DNA level with ligand (log10) associated with the variant `UGAGGU`
Reply: 1.94

Query: Identify normalized RNA/DNA level with ligand (log10) associated with the variant `UCCCAU`
Reply: 1.93

Query: Identify normalized RNA/DNA level with ligand (log10) associated with the variant `UAUCUA`
Reply: 1.92

Query: Identify normalized RNA/DNA level with ligand (log10) associated with the variant `UGGUUG`
Reply: 1.96

Query: Identify normalized RNA/DNA level with ligand (log10) associated with the variant `CCCACC`
Reply: 2.01

Query: Identify normalized RNA/DNA level with ligand (log10) associated with the variant `UCAGAU`
Reply: 1.96

Query: Identify normalized RNA/DNA level with ligand (log10) associated with the variant `CUGGCG`
Reply: 1.97

Query: Identify normalized RNA/DNA level with ligand (log10) associated with the variant `ACGGUU`
Reply: 1.84

Query: Identify normalized RNA/DNA level with ligand (log10) associated with the variant `AGGUUU`
Reply: 1.95

Query: Identify normalized RNA/DNA level with ligand (log10) associated with the variant `UCGCUA`
Reply: 1.96

Query: Identify normalized RNA/DNA level with ligand (log10) associated with the variant `CCGAGG`
Reply: 1.84

Query: Identify normalized RNA/DNA level with ligand (log10) associated with the variant `GUCGUG`
Reply: 1.86

Query: Identify normalized RNA/DNA level with ligand (log10) associated with the variant `ACAUGU`
Reply: 1.91

Query: Identify normalized RNA/DNA level with ligand (log10) associated with the variant `CUACCC`
Reply: 1.94

Query: Identify normalized RNA/DNA level with ligand (log10) associated with the variant `GUAGAA`
Reply: 1.89

Query: Identify normalized RNA/DNA level with ligand (log10) associated with the variant `CGCUAU`
Reply: 1.91

Query: Identify normalized RNA/DNA level with ligand (log10) associated with the variant `AGUUUG`
Reply: 1.89

Query: Identify normalized RNA/DNA level with ligand (log10) associated with the variant `GCCGAG`
Reply: 1.86

Query: Identify normalized RNA/DNA level with ligand (log10) associated with the variant `ACAACC`
Reply: 1.91
